Attribution: patent US6020521A

tested-system: LHRH rat pituitary receptor (Rattus norvegicus, UniProt P30969)
Construct: from tissue; host or cells: rat pituitary
Sequence (P30969 1-327): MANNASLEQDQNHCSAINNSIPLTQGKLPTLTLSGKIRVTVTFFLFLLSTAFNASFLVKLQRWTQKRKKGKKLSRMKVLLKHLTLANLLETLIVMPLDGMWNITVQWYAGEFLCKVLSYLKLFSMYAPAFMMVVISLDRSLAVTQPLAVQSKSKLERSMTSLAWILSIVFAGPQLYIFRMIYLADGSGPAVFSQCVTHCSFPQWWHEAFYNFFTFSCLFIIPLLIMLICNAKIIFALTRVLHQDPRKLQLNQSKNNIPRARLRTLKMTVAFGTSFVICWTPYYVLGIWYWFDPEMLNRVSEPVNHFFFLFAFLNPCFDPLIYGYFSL
test-name: LHRH rat pituitary receptor binding (pKI)
run-parameters: receptor binding affinity, negative logarithm of the equilibrium dissociation constants
quantity-name: Ki (nM)

Worked cases, answers included:
{"compound": "CC[C@H]1OC(=O)[C@H](C)[C@@H](OC(=O)N2C(=O)OC[C@@H]2C)[C@H](C)[C@@H](O[C@@H]2O[C@H](C)C[C@H](N(CC3CC3)CC3CC3)[C@H]2O)[C@](C)(OC)C[C@@H](C)C(=O)[C@H](C)[C@H]2N(CCc3ccc(F)c(Cl)c3)C(=O)O[C@]12C [Example 43]", "tested-system": "LHRH rat pituitary receptor (Rattus norvegicus, UniProt P30969)", "Ki (nM)": 0.692}
{"compound": "CC[C@H]1OC(=O)[C@H](C)[C@@H](OC(=O)N2C(=O)OC[C@@H]2C)[C@H](C)[C@@H](O[C@@H]2O[C@H](C)C[C@H](NCC3CC3)[C@H]2O)[C@](C)(OC)C[C@@H](C)C(=O)[C@H](C)[C@H]2N(CCc3ccc(Cl)c(Cl)c3)C(=O)O[C@]12C [Example 45]", "tested-system": "LHRH rat pituitary receptor (Rattus norvegicus, UniProt P30969)", "Ki (nM)": 8.13}

A: CC[C@H]1OC(=O)[C@H](C)[C@@H](OC(=O)N2C(=S)OC[C@@H]2C)[C@H](C)[C@@H](O[C@@H]2O[C@H](C)C[C@H](N(C)CC3CC3)[C@H]2O)[C@](C)(OC)C[C@@H](C)C(=O)[C@H](C)[C@H]2N(CCc3ccc(Cl)c(Cl)c3)C(=O)O[C@]12C [Example 41]
B: CC[C@H]1OC(=O)[C@H](C)[C@@H](OC(=O)N2C(=O)OC[C@@H]2C)[C@H](C)[C@@H](O[C@@H]2O[C@H](C)C[C@H](N(C)C3CCC3)[C@H]2O)[C@](C)(OC)C[C@@H](C)C(=O)[C@H](C)[C@H]2N(CCc3ccc(Cl)c(Cl)c3)C(=O)O[C@]12C [Example 13]
Given the listed items, does A or B have the lesser reported Ki? I would appreciate it if you answered with the label of your choice. B
